targetEntity: Estrogen receptor (Homo sapiens) (UniProt P03372)
Sequence (P03372 whole entry, looked up): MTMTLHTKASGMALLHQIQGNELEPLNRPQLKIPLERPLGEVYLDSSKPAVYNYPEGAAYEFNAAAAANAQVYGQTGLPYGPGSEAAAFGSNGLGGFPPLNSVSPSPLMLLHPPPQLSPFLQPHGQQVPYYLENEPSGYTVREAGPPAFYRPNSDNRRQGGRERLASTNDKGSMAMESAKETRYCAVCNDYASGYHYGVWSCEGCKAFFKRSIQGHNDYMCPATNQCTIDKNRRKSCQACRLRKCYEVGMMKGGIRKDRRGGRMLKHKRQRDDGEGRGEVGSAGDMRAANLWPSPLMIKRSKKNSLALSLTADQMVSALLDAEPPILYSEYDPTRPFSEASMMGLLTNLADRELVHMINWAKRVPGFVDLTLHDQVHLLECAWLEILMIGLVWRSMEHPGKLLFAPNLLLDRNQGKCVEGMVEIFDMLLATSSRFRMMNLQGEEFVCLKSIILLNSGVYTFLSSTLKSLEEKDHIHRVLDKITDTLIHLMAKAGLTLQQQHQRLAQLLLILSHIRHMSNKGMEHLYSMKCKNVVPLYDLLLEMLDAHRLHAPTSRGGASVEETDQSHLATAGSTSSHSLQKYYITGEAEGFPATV
assayProtocol: ATG_ERa_TRANS: Attagene TRANS-FACTORIAL HepG2 Assay for human Estrogen Receptor alpha (ERa) (AID 2282970)
studyConditions: HepG2 Attagene TRANS ERa GAL4 reporter, mRNA
Description: ATG_TRANS is a cell-based, multiplexed-readout assay that uses HepG2, a human liver cell line, with measurements taken at 24 hours after chemical dosing in a 24-well plate.ATG_ERa_TRANS is one of 30 assay component(s) measured or calculated from the ATG_TRANS assay. […] This assay endpoint, ATG_ERa_TRANS, was analyzed in the positive analysis fitting direction relative to DMSO as the negative control and baseline of activity. […]
Results filed as inconclusive are left out. Active and inactive are the calls of the source. The calls were made as follows: active = hit-call score of the fitted dose curve at least 0.9, where 1 is the maximum; inconclusive = response in the unintended direction; inactive = score below 0.9.
One label from this list, please: active, inactive

Example cases with answers are listed next.
CC(c1ccc(O)cc1)(c1ccc(O)cc1)c1ccc(O)cc1; active
Cc1cc(O)ccc1Cl; active
CC(C)C(=O)OCC(C)(C)C(OC(=O)C(C)C)C(C)C (centres undefined); active
CC(C)(c1ccccc1)c1ccc(O)cc1; active

In: I'd appreciate the recorded outcome for "ClC1=C(Cl)[C@]2(Cl)[C@@H]3[C@@H](Cl)[C@H]4O[C@H]4[C@@H]3C1(Cl)C2(Cl)Cl" from this test.
Out: inactive

In: Recorded test outcome, item "Cc1cccc([N+](=O)[O-])c1"
Out: inactive

In: Hey, what did the test say about "CCCN(CCC)N=O" ?
Out: inactive

In: State the result this test recorded for "Oc1c(Cl)c(Cl)c(Cl)c(Cl)c1Cl" .
Out: inactive

In: # lookup: test call for "ClC1=C(Cl)[C@]2(Cl)[C@@H]3[C@H]4C[C@H]([C@@H]5O[C@H]45)[C@@H]3[C@@]1(Cl)C2(Cl)Cl"
Out: inactive

In: Called result for "c1cc2ccc3cccc4ccc(c1)c2c34"
Out: inactive

----------
Read-out: Pselectin, SELP (gene 6403)
assayProtocol: BSK_4H_Pselectin: BioMAP Diversity Plus: 4H Assay for Pselectin Biomarker Activity (AID 2283026)
studyConditions: primary human endothelial cells (HUVEC); actives raise or lower the signal
Calls of active or inactive are those of the source. Rule for the calls: active = hit-call score of the fitted dose curve at least 0.9, where 1 is the maximum; inactive = score below 0.9.
Select the correct class. Options are label 1 (active), label 0 (inactive) and nothing else.

Use the examples below as a reference point.
CCC(C)(CC)c1cc(NC(=O)c2c(OC)cccc2OC)on1; label 0
Cc1cc(-c2ccc(N)c(C)c2)ccc1N; label 0
Clc1ccc(C(Cl)(Cl)Cl)cc1; label 0
CCC(C)c1cc([N+](=O)[O-])cc([N+](=O)[O-])c1O (centres undefined); label 1
C=CC(=O)NCNC(=O)C=C; label 0
C=CC(N)=O; label 0
Sc1ccccc1; label 0
N#Cc1ccc(N(CC(N)=O)CC(F)(F)F)cc1C(F)(F)F; label 0
Oc1ccc(Cl)cc1Cl; label 0
Cc1ccc(O)c(C)c1; label 0

In: Recorded test call requested for "CCC(=O)O[C@H]1CC[C@H]2[C@@H]3CCC4=CC(=O)CC[C@]4(C)[C@H]3CC[C@]12C"
Out: label 1

In: Field: outcome | Entry: "Cc1ccccc1CO[C@@H]1C[C@@]2(C(C)C)CC[C@]1(C)O2"
Out: label 0

In: What call does the record list for "c1ccc(-c2ccccc2)cc1" ?
Out: label 0

In: Dear all, I need the recorded test outcome for "COS(=O)(=O)OC" , thank you.
Out: label 0

In: Any idea what this test logged for "CC#Cc1cc(C)nc(Nc2ccccc2)n1" ?
Out: label 0

In: In this assay, the call recorded for "Cc1ccccc1[N+](=O)[O-]" was what?
Out: label 0

In: What was the test verdict on "c1cc2ccc3cccc4ccc(c1)c2c34" ?
Out: label 0

In: Given "CCNc1nc(NC(C)C)nc(SC)n1" , state the outcome it received in this test.
Out: label 0

In: Which outcome did this test record for the molecule "CCOC(=O)C(O)(c1ccc(Cl)cc1)c1ccc(Cl)cc1" ?
Out: label 1

In: What did the test return for "ClC1=C(Cl)[C@]2(Cl)[C@@H]3[C@H]4C[C@H]([C@@H]5O[C@H]45)[C@@H]3[C@@]1(Cl)C2(Cl)Cl" ?
Out: label 0

In: Hi, sorry to bother you, what did the test record for "CC(C)(c1ccccc1)c1ccc(O)cc1" ?
Out: label 1

In: Could you kindly confirm the outcome this assay logged for "Nc1ccc(-c2ccc(N)cc2)cc1" ?
Out: label 0

----------
targetEntity: rat Monoamine Oxidase, MAO-B, Peripheral (MAOBP), Maob (gene 25750)
assayProtocol: NVS_ENZ_rMAOBP: NovaScreen (NVS) Enzymatic Assay for rat Monoamine Oxidase, MAO-B, Peripheral (MAOBP) (AID 2283242)
Records with an inconclusive call do not appear. Calls of active or inactive are those of the source. How the source made its calls: active means hit-call score of the fitted dose curve at least 0.9, where 1 is the maximum; inconclusive means response in the unintended direction; inactive means score below 0.9.
# output must be one of active, inactive

CC1=C2C[C@H]3[C@@H](CC=C4C[C@@H](O)CC[C@@]43C)[C@@H]2CC[C@]12O[C@@H]1C[C@H](C)CN[C@H]1[C@H]2C; inactive
Cc1cc(O)ccc1Cl; active
CCSC(=O)N(CC)C1CCCCC1; active
CC(C)(c1ccccc1)c1ccc(O)cc1; inactive

In: Hello, I am checking results. What call was entered for "CC(C)(O)C(=O)Nc1ccc([N+](=O)[O-])c(C(F)(F)F)c1" ?
Out: inactive

----------
targetEntity: Retinoic acid receptor alpha (Homo sapiens) (UniProt P10276)
Sequence (P10276 whole entry, looked up): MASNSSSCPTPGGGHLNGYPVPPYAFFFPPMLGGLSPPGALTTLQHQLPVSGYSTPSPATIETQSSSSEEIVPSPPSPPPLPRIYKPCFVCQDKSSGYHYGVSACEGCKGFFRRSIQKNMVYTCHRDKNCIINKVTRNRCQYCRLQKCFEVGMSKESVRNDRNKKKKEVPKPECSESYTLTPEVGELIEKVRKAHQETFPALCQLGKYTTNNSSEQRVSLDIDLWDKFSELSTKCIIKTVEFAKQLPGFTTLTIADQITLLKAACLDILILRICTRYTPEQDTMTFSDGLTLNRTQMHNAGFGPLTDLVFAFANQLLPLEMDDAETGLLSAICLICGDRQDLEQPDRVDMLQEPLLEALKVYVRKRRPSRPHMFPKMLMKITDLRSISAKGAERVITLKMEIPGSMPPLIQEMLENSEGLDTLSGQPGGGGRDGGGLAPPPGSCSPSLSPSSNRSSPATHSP
assayProtocol: ATG_DR5_RAR_CIS: Attagene CIS-FACTORIAL HepG2 Assay for human Retinoic Acid Receptor Alpha (RARE), DR5 submotif (AID 2282934)
studyConditions: HepG2 Attagene cis-factorial RARE DR5 reporter, mRNA; actives raise or lower the signal
Active and inactive are the calls of the source. Rule for the calls: active = hit-call score of the fitted dose curve at least 0.9, where 1 is the maximum; inactive = score below 0.9.
Respond with a class label; see active, inactive

In: Assay result, entry "Cc1cc(-c2ccc(N)c(C)c2)ccc1N" — outcome?
Out: inactive

----------
Tested on: TTR (gene 7276)
assayProtocol: CCTE_GLTED_hTTR_0.125uM: CCTE's human Transthyretin (hTTR) Inhibition Assay, with 0.125uM TTR, Great Lakes Toxicology and Ecology Division (GLTED) Lab (AID 2284431);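 also: hits lower the fluorescence signal relative to DMSO baseline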
Active and inactive are the calls of the source. How the source made its calls: active means hit-call score of the fitted dose curve at least 0.9, where 1 is the maximum; inactive means score below 0.9.
As shown below, each of these molecules has a reported AC50 value.

// solved cases for AC50 follow
Clc1ccc(C(Cl)(Cl)Cl)cc1; 1040 nM (active)
CCC(C)c1cc([N+](=O)[O-])cc([N+](=O)[O-])c1O (stereo not given); 88.3 nM (active)
O=S(=O)(O)C(F)(F)C(F)(F)C(F)(F)C(F)(F)F; 2080 nM (active)

In: What reported AC50 corresponds to "O=C(O)C(F)(F)C(F)(F)C(F)(F)C(F)(F)C(F)(F)C(F)(F)C(F)(F)C(F)(F)F" on TTR (gene 7276)?
Out: 210 nM (active)

In: What measured AC50 is associated with "NS(=O)(=O)C(F)(F)C(F)(F)C(F)(F)C(F)(F)C(F)(F)C(F)(F)C(F)(F)C(F)(F)F" on TTR (gene 7276)?
Out: 683 nM (active)

----------
Read-out: Monocyte Chemoattractant Protein-1 (MCP1), CCL2 (gene 6347)
assayProtocol: BSK_3C_MCP1: BioMAP Diversity Plus: 3C Assay for Monocyte Chemoattractant Protein-1 (MCP1) Biomarker Activity (AID 2283017)
studyConditions: primary human endothelial cells (HUVEC); actives raise or lower the signal
Active and inactive are the calls of the source. Rule for the calls: active = hit-call score of the fitted dose curve at least 0.9, where 1 is the maximum; inactive = score below 0.9.
API: response.call in active, inactive

Previously resolved entries follow.
Cc1cc2c3c(c1)C(c1ccccc1)=N[C@@H](NC(=O)c1ccncc1)C(=O)N3CC2; inactive
CCC(C)(CC)c1cc(NC(=O)c2c(OC)cccc2OC)on1; inactive
CCC(C)(c1ccc(O)cc1)c1ccc(O)cc1; active
O=C(NC(=O)c1c(F)cccc1F)Nc1cc(Cl)c(OC(F)(F)C(F)F)c(Cl)c1; inactive
CO/C=C(/C(=O)OC)c1ccccc1COc1cccc(C(F)(F)F)n1; active

In: Entry "N#Cc1ccc(N(CC(N)=O)CC(F)(F)F)cc1C(F)(F)F" : call = ?
Out: inactive

In: Given "CC1=C2C[C@H]3[C@@H](CC=C4C[C@@H](O)CC[C@@]43C)[C@@H]2CC[C@]12O[C@@H]1C[C@H](C)CN[C@H]1[C@H]2C" , state the outcome it received in this test.
Out: active

In: Returns: the outcome recorded for "COc1ccc(O)c(C(C)(C)C)c1" in this assay.
Out: inactive

In: Check the results log: what was the call for "Oc1ccc(Cl)cc1Cl" ?
Out: inactive

----------
assayProtocol: APR_HepG2_MitoMass_24hr: Apredica 24-hour HepG2 Assay for Mitochondrial Mass (AID 2282912)
studyConditions: high-content imaging, actives raise or lower the signal
Calls of active or inactive are those of the source. Rule for the calls: active = hit-call score of the fitted dose curve at least 0.9, where 1 is the maximum; inactive = score below 0.9.
Lab note: assign the record to one of TRUE (active), FALSE (inactive)

Cc1cc(O)ccc1Cl; FALSE
CCC(=O)O[C@H]1CC[C@H]2[C@@H]3CCC4=CC(=O)CC[C@]4(C)[C@H]3CC[C@]12C; TRUE
Oc1ccc(Cl)cc1Cl; FALSE
Cc1cc(-c2ccc(N)c(C)c2)ccc1N; FALSE
ClC1=C(Cl)[C@]2(Cl)[C@@H]3[C@@H]4C[C@@H]([C@H]5O[C@@H]45)[C@@H]3[C@@]1(Cl)C2(Cl)Cl; FALSE
N#Cc1ccc(N(CC(N)=O)CC(F)(F)F)cc1C(F)(F)F; FALSE
Cc1cccc([N+](=O)[O-])c1; FALSE
Clc1ccc(Cl)cc1; FALSE
CC(C)(c1ccccc1)c1ccc(O)cc1; FALSE
CCC(C)(c1ccc(O)cc1)c1ccc(O)cc1; TRUE

In: What did this assay record as the result for "CCCCCCCCCC[N+](C)(C)CCCCCCCCCC" ?
Out: FALSE

In: Please let me know the test result on file for "CCCCCCCCOC(=O)c1ccccc1C(=O)OCCCCCCCC" .
Out: FALSE
